Biological target: human PCSK9 (Homo sapiens)
Sequence (Q8NBP7 153-692): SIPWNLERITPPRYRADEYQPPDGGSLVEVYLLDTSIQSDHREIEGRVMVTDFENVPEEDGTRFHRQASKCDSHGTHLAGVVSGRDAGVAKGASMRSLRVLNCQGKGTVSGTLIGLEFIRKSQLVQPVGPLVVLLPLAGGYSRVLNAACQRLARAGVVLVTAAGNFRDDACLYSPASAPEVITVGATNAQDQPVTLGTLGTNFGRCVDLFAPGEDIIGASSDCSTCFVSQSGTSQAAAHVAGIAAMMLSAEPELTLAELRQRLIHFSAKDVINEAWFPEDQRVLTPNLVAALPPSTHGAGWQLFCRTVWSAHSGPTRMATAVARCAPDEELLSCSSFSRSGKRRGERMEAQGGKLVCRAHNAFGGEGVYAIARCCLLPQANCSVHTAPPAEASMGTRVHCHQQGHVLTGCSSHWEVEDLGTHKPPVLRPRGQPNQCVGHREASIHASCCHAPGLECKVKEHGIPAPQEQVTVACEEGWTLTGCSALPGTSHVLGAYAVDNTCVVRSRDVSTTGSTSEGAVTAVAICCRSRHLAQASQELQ
Sequence (Q8NBP7 31-152 partner limits assumed): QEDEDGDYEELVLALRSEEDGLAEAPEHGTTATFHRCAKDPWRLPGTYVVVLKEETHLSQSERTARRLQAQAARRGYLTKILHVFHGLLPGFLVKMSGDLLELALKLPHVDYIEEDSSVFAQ
Assay: PCSK9 ligand binding assay (TR-FRET): interference with binding of human PCSK9 to human LDLR
Conditions: PCSK9 FRET assay, efficacy (Amax); 0% = DMSO, 100% = 1 uM unlabeled human PCSK9
Bridge positions count the residues as written; N and C are the ends. Square brackets hold non-standard residues; d marks the D form. Peptide text beside a SMILES is read from it. ξ: configuration not given here. Phe(3,4-Cl2) = N[C@@H](Cc1ccc(Cl)c(Cl)c1)C(=O)O; Bip = N[C@@H](Cc1ccc(-c2ccccc2)cc1)C(=O)O; Phe(4-Cl) = N[C@@H](Cc1ccc(Cl)cc1)C(=O)O; NMeF = CN[C@@H](Cc1ccccc1)C(=O)O; NMeE = CN[C@@H](CCC(=O)O)C(=O)O; hSer = N[C@@H](CCO)C(=O)O; NMeA = CN[C@@H](C)C(=O)O; ξD = NC(CC(=O)O)C(=O)O
recordedMetric: Maximum % inhibition (%)

- compound: "CC(C)[C@@H]1NC(=O)[C@H](Cc2ccccc2)NC(=O)CSC[C@@H](C(=O)NCC(N)=O)NC(=O)[C@@H]2CCCN2C(=O)[C@H](C)NC(=O)[C@H](CCC(=O)O)NC(=O)[C@H](C)N(C)C(=O)[C@H](Cc2ccc(-c3ccccc3)cc2)NC(=O)[C@H](Cc2ccccc2)N(C)C(=O)[C@H](C)NC(=O)[C@H]([C@@H](C)O)NC(=O)[C@H]([C@@H](C)O)NC(=O)[C@H](CC(=O)O)NC1=O [Example 1-16] ({CH2CO}-FVDTTA[NMeF][Bip][NMeA]EAPCG-NH2; thioether N-13)"
  unitLabel: "%"
  measuredResult: 91
- compound: "CC(C)[C@@H]1NC(=O)[C@H](Cc2ccccc2)NC(=O)CSC[C@@H](C(=O)NCC(N)=O)NC(=O)[C@@H]2CCCN2C(=O)[C@H](CO)NC(=O)[C@H](CCC(=O)O)NC(=O)[C@H](C)N(C)C(=O)[C@H](Cc2ccc(Cl)c(Cl)c2)NC(=O)[C@H](C)N(C)C(=O)[C@H](Cc2ccc(-c3ccccc3)cc2)NC(=O)[C@H]([C@@H](C)O)NC(=O)[C@H]([C@@H](C)O)NC(=O)[C@H](CC(=O)O)NC1=O [Example 1-26] ({CH2CO}-FVDTT[Bip][NMeA][Phe(3,4-Cl2)][NMeA]ESPCG-NH2; thioether N-13)"
  unitLabel: "%"
  measuredResult: 84
- compound: "CC(C)[C@@H]1NC(=O)[C@H](Cc2ccccc2)NC(=O)CSC[C@@H](C(=O)NCC(N)=O)NC(=O)[C@@H]2CCCN2C(=O)[C@H](CO)NC(=O)[C@H](CCC(=O)O)NC(=O)[C@H](C)N(C)C(=O)[C@H](Cc2ccc(-c3ccccc3)cc2)NC(=O)[C@H](Cc2ccccc2)N(C)C(=O)[C@H](Cc2ccc(-c3ccccc3)cc2)NC(=O)[C@H]([C@@H](C)O)NC(=O)[C@H]([C@@H](C)O)NC(=O)[C@H](CO)NC1=O [Example 1-13] ({CH2CO}-FVSTT[Bip][NMeF][Bip][NMeA]ESPCG-NH2; thioether N-13)"
  unitLabel: "%"
  measuredResult: 86
- compound: "CC(C)[C@@H]1NC(=O)[C@H]([C@@H](C)O)NC(=O)[C@H]([C@@H](C)O)NC(=O)[C@@H]2CCCN2C(=O)[C@H](C(C)C)NC(=O)[C@H](Cc2ccccc2)NC(=O)CSC[C@@H](C(N)=O)NC(=O)[C@@H]2CCCN2C(=O)[C@H](C)NC(=O)[C@H](CCC(=O)O)NC(=O)[C@H](C)N(C)C(=O)[C@H](Cc2ccc(Cl)cc2)NC(=O)[C@H](C)N(C)C1=O [Example 2-6] ({CH2CO}-FVPTTV[NMeA][Phe(4-Cl)][NMeA]EAPC-NH2; thioether N-13)"
  unitLabel: "%"
  measuredResult: 83
- compound: "CC(C)[C@@H]1NC(=O)[C@H](Cc2ccccc2)NC(=O)CSC[C@@H](C(N)=O)NC(=O)[C@@H]2CCCN2C(=O)[C@H](C)NC(=O)C(CC(=O)O)NC(=O)[C@H](C)N(C)C(=O)[C@H](Cc2ccc(Cl)cc2)NC(=O)[C@H](C)N(C)C(=O)[C@H](Cc2ccccc2)NC(=O)[C@H]([C@@H](C)O)NC(=O)[C@H]([C@@H](C)O)NC(=O)[C@H](CCO)NC1=O (stereo partly drawn) [Example 2-3] ({CH2CO}-FV[hSer]TTF[NMeA][Phe(4-Cl)][NMeA][ξD]APC-NH2; thioether N-13)"
  unitLabel: "%"
  measuredResult: 75
- compound: "CCNC(=O)[C@@H]1CSCC(=O)N[C@@H](Cc2ccccc2)C(=O)N[C@@H](C(C)C)C(=O)N2CCC[C@H]2C(=O)N[C@@H]([C@@H](C)O)C(=O)N[C@@H]([C@@H](C)O)C(=O)N[C@@H](Cc2ccccc2)C(=O)N(C)[C@@H](C)C(=O)N[C@@H](Cc2ccc(-c3ccccc3)cc2)C(=O)N(C)[C@@H](C)C(=O)N[C@@H](CCC(=O)O)C(=O)N[C@@H](C)C(=O)N2CCC[C@H]2C(=O)N1 [Example 3-2] ({CH2CO}-FVPTTF[NMeA][Bip][NMeA]EAPC-NHEt; thioether N-13)"
  unitLabel: "%"
  measuredResult: 83
- compound: "CC(C)[C@@H]1NC(=O)[C@H](Cc2ccccc2)NC(=O)CSC[C@@H](C(=O)NCC(N)=O)NC(=O)[C@@H]2CCCN2C(=O)[C@H](C)NC(=O)[C@H](CCC(=O)O)NC(=O)[C@H](C)N(C)C(=O)[C@H](Cc2ccc(-c3ccccc3)cc2)NC(=O)[C@H](C)N(C)C(=O)[C@H](Cc2ccccc2)NC(=O)[C@H]([C@@H](C)O)NC(=O)[C@H]([C@@H](C)O)NC(=O)[C@H](CO)NC1=O [Example 1-24] ({CH2CO}-FVSTTF[NMeA][Bip][NMeA]EAPCG-NH2; thioether N-13)"
  unitLabel: "%"
  measuredResult: 70
- compound: "CC(C)[C@@H]1NC(=O)[C@H](Cc2ccccc2)NC(=O)CSC[C@@H](C(=O)NCC(N)=O)NC(=O)[C@@H]2CCCN2C(=O)[C@H](C)NC(=O)[C@H](CCC(=O)O)NC(=O)[C@H](C)N(C)C(=O)[C@H](Cc2ccc(-c3ccccc3)cc2)NC(=O)[C@H](Cc2ccccc2)N(C)C(=O)[C@H](C)NC(=O)[C@H]([C@@H](C)O)NC(=O)[C@H]([C@@H](C)O)NC(=O)[C@@H]2CCCN2C1=O [Example 1-21] ({CH2CO}-FVPTTA[NMeF][Bip][NMeA]EAPCG-NH2; thioether N-13)"
  unitLabel: "%"
  measuredResult: 81
- compound: "CCNC(=O)[C@@H]1CSCC(=O)N[C@@H](Cc2ccccc2)C(=O)N[C@@H](C(C)C)C(=O)N[C@@H](CC(N)=O)C(=O)N[C@@H]([C@@H](C)O)C(=O)N[C@@H]([C@@H](C)O)C(=O)N[C@@H](Cc2ccccc2)C(=O)N(C)[C@@H](C)C(=O)N[C@@H](Cc2ccc(-c3ccccc3)cc2)C(=O)N(C)[C@@H](C)C(=O)N(C)[C@@H](CCC(=O)O)C(=O)N[C@@H](C)C(=O)N2CCC[C@H]2C(=O)N1 [Example 3-1] ({CH2CO}-FVNTTF[NMeA][Bip][NMeA][NMeE]APC-NHEt; thioether N-13)"
  unitLabel: "%"
  measuredResult: 61
